- Tested on: HL-60
- protocolNotes: cell viability (% survival relative to DMSO control); higher = less cytotoxic
- testParameters: 1 µM; 72 h; co-treatment: GSK2194069 100 nM
recordedMetric: cell viability
Kindly report the value followed by its unit.

Here's what some known entries look like.
molecule	recordedMetric	testResult
NCc1ccc(-c2cccnc2)s1	cell viability	95.1%
COc1cc(C2Oc3cc(C4Oc5cc(O)cc(O)c5C(=O)C4O)ccc3OC2CO)ccc1O (centres undefined)	cell viability	105%
C=C1NC(=O)c2cc(CN(C)c3ccc(C(=O)N[C@@H](CCC(=O)O)C(=O)O)s3)ccc2N1	cell viability	30.6%

Ask: Identify the reported cell viability for the following entry. `O=c1oc2c(cc1O)oc(=O)c1cc(O)c(O)c(O)c12`
Reply: 105%

* * *

- Test system: HL-60
- protocolNotes: cell viability (% survival relative to DMSO control); higher = less cytotoxic
- testParameters: 0.01 µM; 72 h; co-treatment: DMSO vehicle
recordedMetric: cell viability (%)
# value in %; strip the unit string

Worked examples follow.
compound	testResult
CCCCCCCCCCCCC/C=C/[C@@H](O)[C@H](CO)N(C)C [N,N-Dimethylsphingosine]	98.5
O=NN(CCCl)C(=O)NCCCl [Carmustine]	102
CC(=O)N[C@@H](CS)C(=O)O [Acetylcysteine]	101
Nc1nc(O)c2c(CCc3ccc(C(=O)N[C@@H](CCC(=O)O)C(=O)O)cc3)c[nH]c2n1 [Pemetrexed]	101

Ask: Answer with reported cell viability of O=C(Oc1cccc(F)c1OC(=O)c1cccc(O)c1)c1cccc(O)c1 [WZB117]
Reply: 98.8

Ask: Please give measured cell viability of the following entry: OC[C@H]1OC(O)C[C@@H](O)[C@@H]1O (some centres undefined) [2-deoxyglucose]
Reply: 101

Ask: Note cell viability for the compound shown: CN(C)CCNC(=O)c1cccn2c(=O)c3cc4ccccc4cc3nc12 [Bmh-21]
Reply: 98.3

Ask: Input COc1cc(C2Oc3cc(C4Oc5cc(O)cc(O)c5C(=O)C4O)ccc3OC2CO)ccc1O (centres undefined) [Silibinin] , output reported cell viability.
Reply: 101

Ask: Kindly indicate its recorded cell viability. Item: O=C1N[C@@H]2[C@@H](O)[C@@H](O)[C@H](O)[C@@H](CO)N2C1=O [Kifunensine]
Reply: 99.2

* * *

- System: KCL-22
- testParameters: 72 h
Entries and their measured IC50 (cell viability) follow.
Please state the figure in µM; there is no need to write the unit.

// below: answered compounds
smilesRepresentation	IC50 (cell viability) [µM]
CCCCCCCCCCCCCCOc1ccc(C(=O)O)o1	8.33
c1ccc2c(c1)SCc1c-2[nH]c2ccccc12	2.18
Nc1ccn([C@@H]2O[C@H](CO)[C@@H](O)C2(F)F)c(=O)n1	0.00687
CN(C)C(=O)n1nnnc1Cc1ccc(-c2ccccc2)cc1	2.92

Ask: Determine its reported IC50 (cell viability): `Oc1ncc(F)c(O)n1`
Reply: 2.68

* * *

- Test system: myeloid leukemia patient primary cells Pat.12
- protocolNotes: cell viability (% survival relative to DMSO control); higher = less cytotoxic
- testParameters: 10 nM; 72 h
In this section, each of the molecules is paired with its reported cell viability.
Reply with just the number (in %).

// solved cases for cell viability follow
1. Nc1ccn([C@@H]2O[C@H](CO)[C@@H](O)C2(F)F)c(=O)n1 95.9
2. O=C(/C=C/c1cccnc1)NCCCCC1CCN(C(=O)c2ccccc2)CC1 32.2

Ask: Determine its reported cell viability: `O=C(c1c2ccccc2cc2ccccc12)N1CCC(N2CCC[C@@H](C(=O)N3CCOCC3)C2)CC1`
Reply: 92

Ask: Please report cell viability for the following molecule: `Oc1ncc(F)c(O)n1`
Reply: 95.4

Ask: Specify measured cell viability for `O=C(Oc1cccc(F)c1OC(=O)c1cccc(O)c1)c1cccc(O)c1` .
Reply: 92.8

Ask: Read off the recorded cell viability for `Cc1nnc(-c2ccc(N3CCC(Oc4ccccc4C(F)(F)F)CC3)nn2)s1`
Reply: 97.1
